In this section we review reported pKi values for a set of compounds.
biological target: LRRK2 (Homo sapiens, UniProt Q5S007, G2019S); construct: purchased Invitrogen PV4882; assay: In Vitro LRRK2 LabChip Assay (LRRK2 Ki); type: biochemical; settings: Table 5 compounds (formula I)
Sequence (Q5S007 whole entry G2019S): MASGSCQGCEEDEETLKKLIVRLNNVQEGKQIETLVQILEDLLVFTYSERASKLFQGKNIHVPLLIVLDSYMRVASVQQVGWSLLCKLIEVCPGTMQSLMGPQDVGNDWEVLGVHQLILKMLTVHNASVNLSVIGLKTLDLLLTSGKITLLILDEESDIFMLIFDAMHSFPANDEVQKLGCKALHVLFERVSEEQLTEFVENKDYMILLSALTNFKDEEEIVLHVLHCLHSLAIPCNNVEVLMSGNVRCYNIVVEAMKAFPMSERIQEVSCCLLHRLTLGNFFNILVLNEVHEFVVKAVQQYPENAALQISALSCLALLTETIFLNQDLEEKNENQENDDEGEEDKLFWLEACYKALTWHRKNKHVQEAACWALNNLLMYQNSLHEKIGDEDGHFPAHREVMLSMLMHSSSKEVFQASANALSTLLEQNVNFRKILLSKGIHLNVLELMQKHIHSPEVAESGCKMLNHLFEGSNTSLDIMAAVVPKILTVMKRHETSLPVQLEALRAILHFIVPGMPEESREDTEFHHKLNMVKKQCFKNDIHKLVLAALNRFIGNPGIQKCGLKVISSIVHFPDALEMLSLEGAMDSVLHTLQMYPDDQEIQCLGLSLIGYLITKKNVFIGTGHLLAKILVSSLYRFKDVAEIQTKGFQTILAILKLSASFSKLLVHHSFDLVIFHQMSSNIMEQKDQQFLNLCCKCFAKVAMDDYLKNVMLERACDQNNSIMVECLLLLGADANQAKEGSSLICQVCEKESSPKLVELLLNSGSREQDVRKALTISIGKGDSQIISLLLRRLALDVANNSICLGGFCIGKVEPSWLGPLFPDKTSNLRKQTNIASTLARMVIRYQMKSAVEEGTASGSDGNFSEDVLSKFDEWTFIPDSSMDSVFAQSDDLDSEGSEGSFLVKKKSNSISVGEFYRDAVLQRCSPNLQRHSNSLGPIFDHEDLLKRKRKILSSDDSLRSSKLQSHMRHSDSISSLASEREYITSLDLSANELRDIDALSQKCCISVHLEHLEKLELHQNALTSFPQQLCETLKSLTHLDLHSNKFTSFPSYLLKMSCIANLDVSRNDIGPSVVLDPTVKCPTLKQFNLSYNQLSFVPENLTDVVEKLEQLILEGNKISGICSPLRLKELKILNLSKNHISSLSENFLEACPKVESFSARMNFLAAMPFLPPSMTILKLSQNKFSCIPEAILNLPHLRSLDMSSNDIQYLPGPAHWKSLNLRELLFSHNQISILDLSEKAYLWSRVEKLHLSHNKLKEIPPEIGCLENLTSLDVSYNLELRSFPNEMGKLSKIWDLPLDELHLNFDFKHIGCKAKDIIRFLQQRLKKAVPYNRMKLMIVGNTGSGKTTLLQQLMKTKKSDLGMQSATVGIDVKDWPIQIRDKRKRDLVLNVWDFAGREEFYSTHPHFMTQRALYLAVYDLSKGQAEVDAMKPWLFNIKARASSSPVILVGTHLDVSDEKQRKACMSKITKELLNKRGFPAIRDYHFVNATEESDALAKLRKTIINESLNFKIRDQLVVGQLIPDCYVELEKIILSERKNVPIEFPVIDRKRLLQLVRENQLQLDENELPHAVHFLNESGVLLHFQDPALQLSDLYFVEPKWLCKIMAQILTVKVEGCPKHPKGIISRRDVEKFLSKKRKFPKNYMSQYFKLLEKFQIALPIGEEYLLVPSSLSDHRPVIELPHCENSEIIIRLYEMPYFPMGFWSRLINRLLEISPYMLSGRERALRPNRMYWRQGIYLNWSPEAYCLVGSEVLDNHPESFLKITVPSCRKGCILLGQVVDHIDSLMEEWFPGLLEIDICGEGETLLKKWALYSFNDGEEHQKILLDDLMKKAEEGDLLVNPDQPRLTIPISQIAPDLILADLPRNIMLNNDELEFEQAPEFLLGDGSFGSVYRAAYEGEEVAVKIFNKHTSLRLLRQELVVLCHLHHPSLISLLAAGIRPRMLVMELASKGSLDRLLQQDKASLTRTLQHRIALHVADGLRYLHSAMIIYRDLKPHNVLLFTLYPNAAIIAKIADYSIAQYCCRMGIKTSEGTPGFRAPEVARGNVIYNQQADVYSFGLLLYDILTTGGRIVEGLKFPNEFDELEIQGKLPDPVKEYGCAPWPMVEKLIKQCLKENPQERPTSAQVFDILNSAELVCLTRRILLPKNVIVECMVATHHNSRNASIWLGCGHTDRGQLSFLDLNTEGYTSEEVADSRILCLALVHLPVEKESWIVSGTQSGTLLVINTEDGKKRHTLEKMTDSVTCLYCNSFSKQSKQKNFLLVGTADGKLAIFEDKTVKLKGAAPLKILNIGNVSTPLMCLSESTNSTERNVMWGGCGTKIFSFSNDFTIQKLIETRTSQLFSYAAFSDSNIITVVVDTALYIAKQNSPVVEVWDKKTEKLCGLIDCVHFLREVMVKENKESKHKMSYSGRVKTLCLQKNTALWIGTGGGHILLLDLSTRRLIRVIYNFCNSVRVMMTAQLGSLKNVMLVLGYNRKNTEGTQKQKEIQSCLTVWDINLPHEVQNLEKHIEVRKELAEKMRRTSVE
pKi: −log10 of the molar value.
property: pKi

| compound | endpoint result |
| --- | --- |
| O=C(c1cc(OCCF)c(Nc2ncc(C(F)(F)F)c(NC3CC3)n2)cc1F)N1CCOCC1 [Compound 70] | 9.18 |
| CCNc1nc(Nc2ccc(C(=O)NC(C)(C)C)cc2OC)ncc1C#N [Compound 46] | 8.52 |
| CCNc1nc(Nc2cc(C)c(C(=O)N3CC[C@H](F)C3)cc2OC)ncc1C#N [Compound 97] | 8.92 |
| CNc1nc(Nc2cc(OC(F)F)c(C(=O)N3CCOCC3)cc2Cl)ncc1C(F)(F)F [Compound 79] | 7.57 |
| CNc1nc(Nc2cc(OC)c(C(=O)N3C[C@@H]4C[C@H]3CO4)cc2Cl)ncc1C(F)(F)F [Compound 15] | 8.59 |
| CNc1nc(Nc2ccc(C(=O)NCC(C)(C)O)c(F)c2OC)ncc1C(F)(F)F [Compound 38] | 7.94 |
| CNc1nc(Nc2cc(OC)c(C(=O)NCC(C)(C)O)cc2F)ncc1C(F)(F)F [Compound 27] | 7.93 |
| CCNc1nc(Nc2cc(F)c(C(=O)N3CCOCC3)cc2C)ncc1C(F)(F)F [Compound 118] | 8.56 |
| O=C(c1cc(F)c(Nc2ncc(C(F)(F)F)c(NC3CC3)n2)cc1F)N1CCOCC1 [Compound 52] | 8.47 |
| CNc1nc(Nc2cc(F)c(C(=O)N3CCOCC3)cc2Cl)ncc1C(F)(F)F [Compound 69] | 8.03 |
| CNc1nc(Nc2ccc(C(=O)N3CCOCC3)cc2OC2CC2)ncc1C(F)(F)F [Compound 77] | 8.79 |
| CNc1nc(Nc2cc(OC(F)(F)F)c(C(=O)N3CCOCC3)cc2OC)ncc1C(F)(F)F [Compound 124] | 8.37 |
| CCNc1nc(Nc2cc(F)c(C(=O)N(C)CC(C)(C)O)cc2OC)ncc1C(F)(F)F [Compound 19] | 8.71 |
| CNc1nc(Nc2cc(O)c(C(=O)N3CCOCC3)cc2Cl)ncc1C(F)(F)F [Compound 10] | 7.94 |
| CNc1nc(Nc2cc(C(F)(F)F)c(C(=O)N3CCOCC3)cc2OC)ncc1Cl [Compound 68] | 8.33 |
| [2H]C1([2H])OC([2H])([2H])C([2H])([2H])N(C(=O)c2cc(Cl)c(Nc3ncc(C(F)(F)F)c(NCC)n3)cc2OC)C1([2H])[2H] [Compound 86] | 8.39 |
| CNc1nc(Nc2cc(Cl)c(C(=O)N3CCOCC3)cc2F)ncc1C(F)(F)F [Compound 53] | 7.71 |

Measured values drawn from patent US8809331B2 for this set.
